Cited source for all entries: the supplement of paper PMC4858399

- System: Caenorhabditis elegans N2
- Assay notes: mean nematode size ln(EXT) after 48 h, plate-adjusted (DMSO control set to 6) (ln(EXT), control-adjusted); higher = larger nematodes / less growth inhibition
- Condition parameters: 100 µM; exposure time 48 h
Measurement kind: mean nematode size ln(EXT) (ln)
Number only, no unit.

The following molecules have reported results that may help.
Molecule | mean nematode size ln(EXT) (ln)
CO/N=C(/C(=O)OC)c1ccccc1CO/N=C(\C)c1cccc(C(F)(F)F)c1 | 4.16
c1ccc(-c2ccccc2)cc1 | 5.74
CO[C@H]1/C=C/O[C@@]2(C)Oc3c(C)c(O)c4c(O)c(c(/C=N/N5CCN(C)CC5)c(O)c4c3C2=O)NC(=O)/C(C)=C\C=C\[C@H](C)[C@H](O)[C@@H](C)[C@@H](O)[C@@H](C)[C@H](OC(C)=O)[C@@H]1C | 5.84

Task item: Provide the reported mean nematode size ln(EXT) (ln) (system: Caenorhabditis elegans N2) for S=C([S-])NCCNC(=S)[S-].S=C([S-])NCCNC(=S)[S-].[Mn+2].[Zn+2]
Reply: 5.7

Task item: Provide the reported mean nematode size ln(EXT) (ln) (system: Caenorhabditis elegans N2) for O=P(OCCCl)(OCCCl)OCCCl [Tris(2-chloroethyl) phosphate]
Reply: 5.87

Task item: Provide the reported mean nematode size ln(EXT) (ln) (system: Caenorhabditis elegans N2) for CCCCOC(=O)[C@@H](C)Oc1ccc(Oc2ccc(C(F)(F)F)cn2)cc1
Reply: 5.52

Task item: Provide the reported mean nematode size ln(EXT) (ln) (system: Caenorhabditis elegans N2) for CC1(C)C(C(=O)OC(C#N)c2cccc(Oc3ccccc3)c2)C1(C)C (configuration not stated)
Reply: 5.22

* * *

- Tested on: Caenorhabditis elegans N2
- Assay notes: mean nematode size ln(EXT) after 48 h, plate-adjusted (DMSO control set to 6) (ln(EXT), control-adjusted); higher = larger nematodes / less growth inhibition
- Condition parameters: 1 µM; exposure time 48 h
Measurement kind: mean nematode size ln(EXT) (ln)
Number only, no unit.

The following molecules have reported results that may help.
Molecule | mean nematode size ln(EXT) (ln)
ClC1(Cl)C2(Cl)C3(Cl)C4(Cl)C(Cl)(Cl)C5(Cl)C3(Cl)C1(Cl)C5(Cl)C24Cl (centres undefined) | 5.5
Cc1nc(-c2ccc3c(c2)CCN(CCC2CCC(NC(=O)/C=C/c4ccc(F)cc4)CC2)CC3)no1 (centres undefined) | 5.83
Oc1ccc(C(c2ccc(O)cc2)C(Cl)(Cl)Cl)cc1 [2,2-Bis(4-hydroxyphenyl)-1,1,1-trichloroethane (HPTE)] | 6.15
Oc1ccc(Cl)cc1Cc1ccccc1 | 5.87
O=C(O)CC(O)C(=O)O (centres undefined) [2-Hydroxybutanedioic acid] | 5.82

Task item: Recall and state the measured mean nematode size ln(EXT) (ln) for O=S(=O)(O)C(F)(F)C(F)(F)C(F)(F)C(F)(F)C(F)(F)C(F)(F)F [Potassium perfluorohexanesulfonate] .
Reply: 5.87

Task item: Recall and state the measured mean nematode size ln(EXT) (ln) for CNC(C)=O [N-Methylacetamide] .
Reply: 6.1

Task item: Recall and state the measured mean nematode size ln(EXT) (ln) for CCNc1cccc(C)c1 .
Reply: 5.72

Task item: Recall and state the measured mean nematode size ln(EXT) (ln) for CCC(C)=NO .
Reply: 5.89

* * *

- Tested on: Caenorhabditis elegans N2
- Assay notes: lowest effective concentration for larval growth inhibition (size below effect threshold); higher = less potent
- Condition parameters: exposure time 48 h
Collected lowest effective concentration values appear next to each entry.
Give a bare numeral; the unit µM is implied.

The following compounds have reported results that may help.
Compound | lowest effective concentration / µM
CCCN(CC)CC1COC2(CCC(C(C)(C)C)CC2)O1 (stereo unspecified) [Spiroxamine] | 200
c1ccc2c(c1)oc1ccccc12 [Dibenzofuran] | 50
CCCCCCC(C)OC(=O)COc1nc(F)c(Cl)c(N)c1Cl (stereo unspecified) [Fluroxypyr-meptyl] | 200

Task item: Provide the reported lowest effective concentration (system: Caenorhabditis elegans N2) for CCOC(=O)C(Cl)Cc1cc(-n2nc(C)n(C(F)F)c2=O)c(F)cc1Cl (stereo unspecified) [Carfentrazone-ethyl]
Reply: 200

* * *

Collected mean nematode size ln(EXT) (ln) values appear next to each entry.
- Tested on: Caenorhabditis elegans N2
- Assay notes: mean nematode size ln(EXT) after 48 h, plate-adjusted (DMSO control set to 6) (ln(EXT), control-adjusted); higher = larger nematodes / less growth inhibition
- Condition parameters: 200 µM; exposure time 48 h
Where a name gives a salt, the structure may show the parent alone.
Number only, no unit.

The following molecules have reported results that may help.
Molecule | mean nematode size ln(EXT) (ln)
CN(C)C(=O)Cl [Dimethylcarbamoyl chloride] | 5.73
CSC(=O)c1cccc2nnsc12 | 5.36

Task item: Recall and state the measured mean nematode size ln(EXT) (ln) for Nc1nc(=O)c2nc(CNc3ccc(C(=O)N[C@@H](CCC(=O)O)C(=O)O)cc3)cnc2[nH]1 .
Reply: 5.82

Task item: Recall and state the measured mean nematode size ln(EXT) (ln) for CN(C)[C@@H]1C(=O)C(C(N)=O)=C(O)[C@@]2(O)C(=O)C3=C(O)c4c(O)cccc4[C@@](C)(O)[C@H]3[C@H](O)[C@@H]12 [Oxytetracycline hydrochloride] .
Reply: 5.48

Task item: Recall and state the measured mean nematode size ln(EXT) (ln) for CC(C)(O)c1ccc(CNC(=O)c2cccnc2Oc2ccc(F)cc2)cc1 .
Reply: 5.72

Task item: Recall and state the measured mean nematode size ln(EXT) (ln) for CC(C)(C)C(O)C(Oc1ccc(Cl)cc1)n1cncn1 (centres undefined) .
Reply: 5.59

Task item: Recall and state the measured mean nematode size ln(EXT) (ln) for COS(C)(=O)=O [Methyl methanesulfonate] .
Reply: 5.89

Task item: Recall and state the measured mean nematode size ln(EXT) (ln) for Cc1cc(C2CC2)nc(Nc2ccccc2)n1 .
Reply: 4

Task item: Recall and state the measured mean nematode size ln(EXT) (ln) for c1ccc2occc2c1 .
Reply: 5.78

* * *

Collected mean nematode size ln(EXT) (ln) values appear next to each entry.
- Tested on: Caenorhabditis elegans N2
- Assay notes: mean nematode size ln(EXT) after 48 h, plate-adjusted (DMSO control set to 6) (ln(EXT), control-adjusted); higher = larger nematodes / less growth inhibition
- Condition parameters: 0.5 µM; exposure time 48 h
Number only, no unit.

The following molecules have reported results that may help.
Molecule | mean nematode size ln(EXT) (ln)
O=C(O)C(F)(F)C(F)(F)C(F)(F)C(F)(F)C(F)(F)C(F)(F)C(F)(F)C(F)(F)F [Perfluorononanoic acid] | 5.85
Nc1ccc2c(c1)C(=O)c1ccccc1C2=O [2-Aminoanthraquinone] | 6.17
Cc1cc(CCN2CCN(c3nsc4ccccc34)CC2)cc2c1NC(=O)CC2(C)C | 5.77

Task item: Provide the reported mean nematode size ln(EXT) (ln) (system: Caenorhabditis elegans N2) for CCCCOC(=O)c1ccc(O)cc1 [Butylparaben]
Reply: 5.84

Task item: Provide the reported mean nematode size ln(EXT) (ln) (system: Caenorhabditis elegans N2) for O=C1OC(c2ccc(O)cc2)(c2ccc(O)cc2)c2ccccc21 [Phenolphthalein]
Reply: 5.87

* * *

- System: Caenorhabditis elegans N2
- Assay notes: mean nematode size ln(EXT) after 48 h, plate-adjusted (DMSO control set to 6) (ln(EXT), control-adjusted); higher = larger nematodes / less growth inhibition
- Condition parameters: 200 µM; exposure time 48 h
Measurement kind: mean nematode size ln(EXT) (ln)
Number only, no unit.

The following molecules have reported results that may help.
Molecule | Endpoint result
CNS(=O)(=O)c1cc(C(=O)N2CCC(CCN3C4CCC3CC(n3c(C)nc5ccccc53)C4)(c3cccc(F)c3)CC2)c(Cl)cc1F (stereo not given) | 5.41
CCN(CC)CCNc1ccc(CNC=O)c2sc3ccc(OC)cc3c(=O)c12 | 3.81
CC(C)(C)c1ccc(O)cc1 [4-tert-Butylphenol] | 5.71
CC(=O)NC1(c2cccc(F)c2)CCN(CC[C@@]2(c3ccc(Cl)c(Cl)c3)CN(c3ccccc3)C(=O)CO2)CC1 | 5.02

Let's switch to this molecule now.
Task item: Recall and state the measured mean nematode size ln(EXT) (ln) for CC(C)(C)C(O)/C(=C/c1ccc(Cl)cc1Cl)n1cncn1 (stereo not given) [Diniconazole] .
Reply: 4.28

* * *

Collected mean nematode size ln(EXT) (ln) values appear next to each entry.
- System: Caenorhabditis elegans N2
- Assay notes: mean nematode size ln(EXT) after 48 h, plate-adjusted (DMSO control set to 6) (ln(EXT), control-adjusted); higher = larger nematodes / less growth inhibition
- Condition parameters: 10 µM; exposure time 48 h

Task item: Recall and state the measured mean nematode size ln(EXT) (ln) for O=[N+]([O-])C(Br)(CO)CO .
Reply: 5.84

Task item: Recall and state the measured mean nematode size ln(EXT) (ln) for CCCCCCCCCCCCOS(=O)(=O)[O-].[Na+] [Sodium dodecyl sulfate] .
Reply: 5.47

Task item: Recall and state the measured mean nematode size ln(EXT) (ln) for CSc1ccc(Oc2ccc(S(N)(=O)=O)cc2CN(C)C)cc1C .
Reply: 5.84

Task item: Recall and state the measured mean nematode size ln(EXT) (ln) for CN(C)C=O [N,N-Dimethylformamide] .
Reply: 5.84

Task item: Recall and state the measured mean nematode size ln(EXT) (ln) for Cc1ccc(N)cc1 .
Reply: 5.88

Task item: Recall and state the measured mean nematode size ln(EXT) (ln) for Cc1c(C)c2c(c(C)c1O)CCC(C)(COc1ccc(CC3SC(=O)NC3=O)cc1)O2 (stereo unspecified) .
Reply: 5.69
